target-entity: thrombin (alpha-thrombin) (Homo sapiens, UniProt P00734;P00734 P00734:315-363,P00734:364-622)
test-summary: filter
measured-metric: pKd
Quick note: pKd means taking -log10 of the concentration in moles per liter.

Worked set:
INSERT INTO results (binder, readout_number) VALUES
  ('ACTGCCTAGGTTGGGTAGGGTGGTGGCAGT (ssDNA, PS linkage between nt 24 and 25) [ARC2667]', 9.34),
  ('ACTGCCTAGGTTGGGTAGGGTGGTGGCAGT (XNA, 2''-OMe G26, rest DNA) [ARC2638]', 9.72),
  ('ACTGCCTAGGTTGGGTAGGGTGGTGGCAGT (ssDNA, PS linkage between nt 19 and 20) [ARC2662]', 9.78),
  ('ACTGCCTAGGUTGGGTAGGGTGGTGGCAGT (XNA, 2''-OMe U11, rest DNA) [ARC2623]', 9.13),
  ('GCCTAGGTTGGGTAGGGTGGTGGC (XNA, 2''-OMe 1-2,24, rest DNA) [ARC2846]', 9.57);

Entry ACUGCCTAGGTTGGGTAGGGTGGTGGCAGT (XNA, 2'-OMe U3, rest DNA) [ARC2615] has what pKd?
10.03

# get_value(readout='pKd', item= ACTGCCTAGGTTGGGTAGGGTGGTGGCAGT (ssDNA, PS linkage between nt 3 and 4) [ARC2646] )
9.77

Which value of pKd has been reported for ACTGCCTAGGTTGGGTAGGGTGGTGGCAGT (XNA, 2'-OMe G29, rest DNA) [ARC2641] in the records?
9.77
